Biological target: Angiotensin II receptor (Rattus norvegicus) (UniProt P29089+P25095+P35351)
Assay: In vivo agonist activity expressed as percent activity relative to angiotensin II in rat blood pressure assay.
Type: functional, organism-based
Square brackets hold non-standard residues; d marks the D form. Peptide text beside a SMILES is read from it. NMeA = CN[C@@H](C)C(=O)O; Ac5c = NC1(C(=O)O)CCCC1; Aib = CC(C)(N)C(=O)O; Sar = CNCC(=O)O
attribute.measured: Activity (%)

compound	attribute.measured	reading.unit	test.value
CC[C@H](C)[C@H](NC(=O)[C@H](Cc1ccc(O)cc1)NC(=O)C1(NC(=O)[C@H](CCCN=C(N)N)NC(=O)[C@@H](N)CC(=O)O)CCCC1)C(=O)N[C@@H](Cc1c[nH]cn1)C(=O)N1CCC[C@H]1C(=O)N[C@@H](Cc1ccccc1)C(=O)O (H-DR[Ac5c]YIHPF-OH)	Activity	%	2
CC[C@H](C)[C@H](NC(=O)[C@@H]1CCCN1C(=O)[C@H](Cc1c[nH]cn1)NC(=O)[C@@H](NC(=O)[C@H](Cc1ccc(O)cc1)NC(=O)[C@H](C)NC(=O)[C@H](CCCN=C(N)N)NC(=O)CNC)[C@@H](C)CC)C(=O)O (H-[Sar]RAYIHPI-OH)	Activity	%	7.5
CC[C@H](C)[C@H](NC(=O)[C@@H]1CCCN1C(=O)[C@H](Cc1c[nH]cn1)NC(=O)[C@@H](NC(=O)[C@H](Cc1ccc(O)cc1)NC(=O)C(C)(C)NC(=O)[C@H](CCCN=C(N)N)NC(=O)CNC)[C@@H](C)CC)C(=O)O (H-[Sar]R[Aib]YIHPI-OH)	Activity	%	3
CNCC(=O)N[C@@H](CCCN=C(N)N)C(=O)N[C@H](C(=O)N[C@@H](Cc1ccc(O)cc1)C(=O)N1CSC(C)(C)[C@@H]1C(=O)N[C@@H](Cc1c[nH]cn1)C(=O)N1CCC[C@H]1C(=O)N[C@@H](Cc1ccccc1)C(=O)O)C(C)C	Activity	%	100
CC[C@@H](C)[C@@H](NC(=O)[C@H](Cc1ccc(O)cc1)NC(=O)[C@H](C)N(C)C(=O)[C@H](CCCN=C(N)N)NC(=O)CNC)C(=O)N[C@@H](Cc1c[nH]cn1)C(=O)N1CCC[C@H]1C(=O)NC(Cc1ccccc1)C(=O)O (stereo in doubt)	Activity	%	10
CC(C)[C@H](NC(=O)[C@H](Cc1ccc(O)cc1)NC(=O)C1(NC(=O)[C@H](CCCN=C(N)N)NC(=O)[C@@H](N)CC(=O)O)CCCC1)C(=O)N[C@@H](Cc1c[nH]cn1)C(=O)N(C)[C@@H](C)C(=O)N[C@@H](Cc1ccccc1)C(=O)O (H-DR[Ac5c]YVH[NMeA]F-OH)	Activity	%	22
CC[C@H](C)[C@H](NC(=O)[C@H](Cc1ccc(O)cc1)NC(=O)[C@@H]1CCCN1C(=O)[C@H](CCCN=C(N)N)NC(=O)[C@@H](N)CC(=O)O)C(=O)N[C@@H](Cc1c[nH]cn1)C(=O)N1CCC[C@H]1C(=O)N[C@@H](Cc1ccccc1)C(=O)O (H-DRPYIHPF-OH)	Activity	%	53
